# protocolNotes: Pharmacokinetics in 300/400 mg BID study
# Format: in vivo, human
# conditionsUsed: female, human, plasma, oral, 400 mg, Single Dose (400 mg), Female (N = 22); read-out: AUC(0-t)
measuredAttribute: AUC(0-t) (ng·h/mL)

[[record]]
molecularstring = "Cl.NC(=O)[C@@H]1CC[C@H](c2ccc(OCc3ccccc3F)cc2)N1"
unitssymbol = "ng·h/mL"
datavalue = 32800


====

# protocolNotes: 150 mg TID dosage study, pharmacokinetics
# conditionsUsed: both sexes, human, in vivo, day 8
measuredAttribute: Cmax (µg/mL)

[[record]]
molecularstring = "Cl.NC(=O)[C@@H]1CC[C@H](c2ccc(OCc3ccccc3F)cc2)N1"
datavalue = 2.71

